Value source: BindingDB's records for PubMed 21964340

# METHOD: Inhibition of CSNK2A1 (unknown origin) incubated for 1 hr by colloidal coomassie staining based LC-MS/MS analysis
ATTRIBUTE MEASURED: IC50 (nM)
Quick reminder: number only, in nM, skip the unit.

Input line: What measured IC50 goes with `CCNC(=O)C[C@@H]1N=C(c2ccc(Cl)cc2)c2cc(OC)ccc2-n2c(C)nnc21` ?
Output line: 120

###

# METHOD: Binding affinity against BRD9 (unknown origin) assessed as apparent dissociation constant incubated for 1 hr by colloidal coomassie staining based LC-MS/MS analysis
ATTRIBUTE MEASURED: pKd
Please express pKd as -log10 of the molar concentration.

Input line: What measured pKd goes with `CCNC(=O)C[C@@H]1N=C(c2ccc(Cl)cc2)c2cc(OC)ccc2-n2c(C)nnc21` ?
Output line: 7.70
